readout type: flash point (°C)

Use the examples below as a reference point.
>  <molecule>
CCN(CC)CCCN [N',N'-diethylpropane-1,3-diamine]

>  <readout type>
flash point

>  <observed>
59.00

$$$$
>  <molecule>
CCCCOC(=O)c1ccccc1 [butyl benzoate]

>  <readout type>
flash point

>  <observed>
107.00

$$$$

a. CCOC(=O)CC#N [ethyl 2-cyanoacetate]
b. OCC1CCC(CO)CC1 (centres undefined) [[4-(hydroxymethyl)cyclohexyl]methanol]
Qu. Sort a and b by flash point descending and give the first. Give the chosen item's label as your response.
Ans. b

----------
readout type: flash point (°C)

P. Cc1cccc(C)c1O
Q. COCC(C)OCC(C)OC(C)CO (stereo not given) [2-[1-(1-methoxypropan-2-yloxy)propan-2-yloxy]propan-1-ol]
R. C=CCCC
Qu. Place the item with the largest flash point first, then continue in falling order, using the list above. Please reply with the labels ordered as requested. Many thanks.
Ans. Q, P, R

P. C=C(C)C1CC=C(C)C(OC(C)=O)C1 (stereo not given) [(2-methyl-5-prop-1-en-2-ylcyclohex-2-en-1-yl) acetate]
Q. CCOCCC(=O)OCC [ethyl 3-ethoxypropanoate]
Qu. Between the two listed entries P and Q , which has its flash point at the higher number? Pick one; state its label.
Ans. P
(P: 97.00 °C, Q: 59.00 °C)
